# Test system: YT (IL-2 2.5 ng/mL)
# assayRemarks: drug sensitivity score (DSS) (DSS units); higher = more sensitive; extreme values may be limits of the assay
# testSettings: 72 h
Label rule, in plain words: drug sensitivity score of 4 and up is class 1, under 4 is class 0.

compound | discreteLabel
C[C@H]1C[C@@H]2[C@H]([C@@H](O)C[C@@]3(C)[C@H]2CC[C@]3(O)C(=O)CO)[C@@]2(C)C=CC(=O)C=C12 [Methylprednisolone] (max concentration tested 10000 nM) | class 1
CN(C)C(=O)c1cc2cnc(Nc3ccc(N4CCNCC4)cn3)nc2n1C1CCCC1 [NVP-LEE011] (max concentration tested 10000 nM) | class 0
O=C(O)CC1CC(c2ccccc2)=NO1 (stereo not given) [VGX-1027] (max concentration tested 10000 nM) | class 0
Cc1[nH]c(/C=C2\C(=O)Nc3ccccc32)c(C)c1CCC(=O)O [Orantinib] (max concentration tested 10000 nM) | class 0
C[C@@H]1C[C@H]2O[C@@H]2/C=C\C=C\C(=O)Cc2c(Cl)c(O)cc(O)c2C(=O)O1 [Radicicol] (max concentration tested 10000 nM) | class 1
